List of growth inhibition values.
experiment-summary: NCI Yeast Anticancer Drug Screen. Data for the sgs1 mgt1 strain (AID 161);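 further: 0% = growth of cultures given vehicle only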
experimental-context: S. cerevisiae sgs1 mgt1 strain, active compounds read high; at 50.0 µM unless noted
Compounds without any hit were thinned out: in the full panel of roughly 79,000, 15% have a hit.
All answers are understood in %, so give the number only.

compound | result
CN1CCN(C(=S)N(C)C(=O)c2ccco2)CC1 | -48.9

Request: Form field: reported growth inhibition of `O=C(Nc1ccccc1)Nc1ccc2c(c1)oc1ccccc12`
Response: 9.6

Request: Would you mind telling me what growth inhibition value was observed for COC(=O)C(Br)C(Br)c1cc(OC)c(OC)c(OC)c1 (configuration not stated) ?
Response: 2.3

Request: Looking for the measured growth inhibition of `CC(C)COC(=O)/C=C/c1ccccc1` , can you help?
Response: 20.6

Request: Which growth inhibition value is on record for `NCCNc1ccccc1` ?
Response: -42.2

Request: What value of growth inhibition has been recorded for this entry: `COc1cc(N=C=S)ccc1NC(=O)c1cc(Br)cc(Br)c1O`
Response: 46.6

Request: Entry `CCc1c(C)[nH]c2ccc([N+](=O)[O-])cc12` has what growth inhibition?
Response: 6.7

Source of measurements: PubChem BioAssay (NCI)
